The reported measurements were obtained from patent US20260242478A1.

# tested_system: T1, Anti-CD28 Fab (SEQ ID NOs: 696, 697)
# T1 construct: In the phage ELISA the Fab was biotinylated and captured on neutravidin coated plates
# T1 sequence (VH, as listed by the source, chain 1 of 2): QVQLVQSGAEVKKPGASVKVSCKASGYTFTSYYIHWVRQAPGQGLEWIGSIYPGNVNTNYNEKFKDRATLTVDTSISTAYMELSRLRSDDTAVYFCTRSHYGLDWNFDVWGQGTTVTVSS
# T1 sequence (VL, as listed by the source, chain 2 of 2): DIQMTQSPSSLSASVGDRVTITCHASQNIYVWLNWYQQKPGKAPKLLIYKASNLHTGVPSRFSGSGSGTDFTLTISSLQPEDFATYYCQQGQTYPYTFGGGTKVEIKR
# assay_summary: phage binding ELISA; Fab-coated wells pre-incubated with CD28 antigen as competitor, phage detected with anti-M13 HRP
Where no end group is shown, it is not given here.
metric_name: Anti-CD28 Fab signal in the presence of CD28 (phage binding ELISA)

## Input Can you share its Anti-CD28 Fab signal in the presence of CD28 (phage binding ELISA)? I mean this binder: YCDGHLSEYIGKCL (cysteine pairing not given here; also: displayed as fusion to phage pIII, linker not given here) [Phage-1079]
## Output 0.06
